- RUN_DESCRIPTION: Lethal dose 50 (LD50) in the mouse after a single oral administration
- Assay type: in vivo
- RECORDED_CONDITIONS: in vivo, single administration, 14th day mortality
MEASURED_PARAMETER: LD50 at 336 h (mg/kg)
Express it in mg/kg; write the number only.

input: Give the reported value of LD50 at 336 h for this record: CC1=CCC(CC(=O)Oc2ccccc2C(=O)O)C1(C)C (single isomer, unassigned)
output: 913
